- Test system: Bacteria
- test.summary: Antibacterial activity against Gram-positive bacteria incubated for 18 hrs by CLSI based broth dilution method
- Assay type: functional
Where a SMILES comes first, the peptide text is derived from it.
measurement.name: MIC (µM)
// units = µM; emit number, no label

# molecule, study.target, measurement.name, number
measured = [
    ("N=C(N)NCCC[C@H](NC(=O)[C@H](CCCNC(=N)N)NC(=O)[C@H](Cc1c[nH]c2ccccc12)NC(=O)[C@H](CCCNC(=N)N)NC(=O)[C@H](CCCNC(=N)N)NC(=O)[C@H](Cc1c[nH]c2ccccc12)NC(=O)[C@H](Cc1c[nH]c2ccccc12)NC(=O)[C@@H](N)CCCNC(=N)N)C(=O)N[C@@H](Cc1c[nH]c2ccccc12)C(=O)N[C@@H](Cc1c[nH]c2ccccc12)C(N)=O (H-RWWRRWRRWW-NH2)", "Bacteria", "MIC", 13.5),
]

Now take the following molecule into account.
Item: N=C(N)NCCC[C@H](NC(=O)[C@H](CCCCN)NC(=O)[C@H](Cc1c[nH]c2ccccc12)NC(=O)[C@H](Cc1c[nH]c2ccccc12)NC(=O)[C@@H](N)CCCCN)C(=O)N[C@@H](Cc1c[nH]c2ccccc12)C(=O)N[C@@H](CCCCN)C(=O)N[C@@H](CCCCN)C(=O)N[C@@H](Cc1c[nH]c2ccccc12)C(=O)N[C@@H](Cc1c[nH]c2ccccc12)C(N)=O (H-KWWKRWKKWW-NH2) | MIC: 8

---

- Test system: Erythrocyte
- test.summary: Hemolytic activity in BALB/C mouse erythrocytes incubated for 1 hr by absorbance method
- Type: ADME, cell-based
Where a SMILES comes first, the peptide text is derived from it.
measurement.name: MHC10 (µM)
// units = µM; emit number, no label

Example results:
# molecule, MHC10 (µM)
rows = [
    ("N=C(N)NCCC[C@H](NC(=O)[C@H](CCCNC(=N)N)NC(=O)[C@H](Cc1c[nH]c2ccccc12)NC(=O)[C@H](CCCNC(=N)N)NC(=O)[C@H](CCCNC(=N)N)NC(=O)[C@H](Cc1c[nH]c2ccccc12)NC(=O)[C@H](Cc1c[nH]c2ccccc12)NC(=O)[C@@H](N)CCCNC(=N)N)C(=O)N[C@@H](Cc1c[nH]c2ccccc12)C(=O)N[C@@H](Cc1c[nH]c2ccccc12)C(N)=O (H-RWWRRWRRWW-NH2)", 43.67),
    ("CC(C)C[C@H](NC(=O)[C@H](Cc1ccccc1)NC(=O)CN)C(=O)N[C@@H](CCCCN)C(=O)N[C@@H](CCCNC(=N)N)C(=O)N[C@@H](Cc1ccccc1)C(=O)N[C@@H](CCCCN)C(=O)N[C@H](C(=O)N[C@@H](CC(C)C)C(=O)N[C@@H](Cc1ccccc1)C(N)=O)[C@@H](C)O (H-GFLKRFKTLF-NH2)", 384),
]

Now take the following molecule into account.
Item: C[C@@H](O)[C@H](NC(=O)[C@H](CCCCN)NC(=O)[C@H](Cc1c[nH]c2ccccc12)NC(=O)[C@H](CCCNC(=N)N)NC(=O)[C@H](CCCCN)NC(=O)[C@H](Cc1c[nH]c2ccccc12)NC(=O)[C@H](Cc1c[nH]c2ccccc12)NC(=O)CN)C(=O)N[C@@H](Cc1c[nH]c2ccccc12)C(=O)N[C@@H](Cc1c[nH]c2ccccc12)C(N)=O (H-GWWKRWKTWW-NH2) | MHC10: 40.79
